- Tested on: SK-MEL-5
- TEST PROTOCOL: NCI DTP in-vitro dose response, Melanoma
- Assay type: cell-based
REPORTED PROPERTY: CC50 (µM)
State just the number; it will be interpreted in µM.

Prompt: Fill in the blank: the reported CC50 of `O=C1c2ccccc2C(=O)c2c1ccc1nccnc21` is ____.
Response: 44.4

* * *

- System: 786-0
- TEST PROTOCOL: NCI DTP in-vitro dose response, Renal Cancer
- Assay type: cell-based
- TEST CONTEXT: 786-0; read-out: LC50 (the source's name)
REPORTED PROPERTY: CC50

Prompt: What value of CC50 on 786-0 does O=C1c2ccccc2C(=O)c2c1ccc1nccnc21 [TABLE 5-7] have?
Response: > 100 µM

* * *

- Test system: SF-268
- TEST PROTOCOL: NCI DTP in-vitro dose response, CNS Cancer
- Assay type: cell-based
The entries below come with measured CC50 values attached.

Prompt: Any idea what CC50 was measured for `CCc1nc2ccc3c(c2[nH]1)C(=O)c1ccccc1C3=O` ?
Response: > 100 µM

Prompt: Suppose we examine the compound `O=C1c2ccccc2C(=O)c2c1ccc1nccnc21` ; what CC50 value has been reported?
Response: > 100 µM

* * *

- Test system: LOX IMV1
- TEST PROTOCOL: in vitro test at 1.0×10^−5 M, Skin cancer cell
- Format: cell-based
- TEST CONTEXT: 1.0×10^−5 molal concentration (M)
REPORTED PROPERTY: inhibition effect on cancer cell line (Table 2 value)
Give your answer as a number; write no unit.

Use these answered entries as a reference point.
O=C1c2ccccc2C(=O)c2c1ccc1[nH]c(=O)c(=O)[nH]c21 ... 96.94
CCc1nc2ccc3c(c2[nH]1)C(=O)c1ccccc1C3=O ... 39.98

Prompt: I have this molecule here, `CC1(C)Nc2ccc3c(c2N1)C(=O)c1ccccc1C3=O` , and I need its recorded inhibition effect on cancer cell line (Table 2 value).
Response: 61.88

Prompt: What inhibition effect on cancer cell line (Table 2 value) value was documented for this molecule, O=C1c2ccccc2C(=O)c2c1ccc1nccnc21 [No. 25, Naphthol-[2,3-f]quinoxaline-7,12-dione] ?
Response: 44.18

Prompt: Could you share which inhibition effect on cancer cell line (Table 2 value) value was measured for `O=C1c2ccccc2C(=O)c2c1ccc1nsnc21` ?
Response: −50.6

* * *

- Test system: TK-10
- TEST PROTOCOL: NCI DTP in-vitro dose response, Renal Cancer
- Type: cell-based
- TEST CONTEXT: TK-10; read-out: LC50 (the source's name)
REPORTED PROPERTY: CC50

Prompt: Which CC50 is reported for this compound? `O=C1c2ccccc2C(=O)c2c1ccc1nccnc21`
Response: > 100 µM

* * *

- Test system: HL-60(TB)
- TEST PROTOCOL: NCI DTP in-vitro dose response, Leukemia
REPORTED PROPERTY: CC50 (µM)
Just the number in µM, nothing appended.

Prompt: CC50 lookup needed for `O=C1c2ccccc2C(=O)c2c1ccc1nccnc21` , thanks.
Response: 83.7

* * *

- System: MDA-MB-231/ATCC
- TEST PROTOCOL: NCI DTP in-vitro dose response, Breast Cancer
- Assay type: cell-based
REPORTED PROPERTY: CC50

Prompt: Given the entry CCc1nc2ccc3c(c2[nH]1)C(=O)c1ccccc1C3=O [TABLE 4-9] , report its measured CC50.
Response: > 100 µM
